organism: Homo sapiens; test: Selectivity ratio of IC50 for inhibition of human 20S proteasome beta5 subunit to IC50 for inhibition of human 20S immunoproteasome beta-5i subunit
quantity-name: Ratio IC50

Use these answered entries as a reference point.
> print(dat)
                            compound.string  quantity.name  value
1  O=C(N[C@@H](Cc1coc2ccccc12)B(O)O)[C@@H]1CCOC1     Ratio IC50    410
2  O=C(Cc1cccnc1)N[C@@H](Cc1coc2ccccc12)B(O)O     Ratio IC50    232
3  O=C(N[C@@H](Cc1coc2ccccc12)B(O)O)[C@@H]1CCCO1     Ratio IC50    128
4  O=C(Cc1cnccn1)N[C@@H](Cc1coc2ccccc12)B(O)O     Ratio IC50    212
5  O=C(Cc1ccccc1)N[C@@H](C[C@@H]1COc2c(Cl)cccc21)B(O)O     Ratio IC50   1620

(A) N#Cc1ccccc1CC(=O)N[C@@H](C[C@@H]1COc2c(Cl)cccc21)B(O)O
(B) O=C(N[C@@H](Cc1coc2ccccc12)B(O)O)[C@H]1CCOC1
Q: From the recorded data, which exceeds the other in Ratio IC50: A or B ? Select an item and report its label.
Ans: A

* * *

assay: Clearance in human hepatocytes measured per million of cells; type: ADME, cell-based, Hepatocyte; conditions: read-out: CLH
quantity-name: hepatocyte CLint (µL/min/1e6 cells)
Write it as a number; the unit µL/min/1e6 cells goes unstated.

> print(dat)
                            compound.string  value
1  O=C(N[C@@H](Cc1coc2ccccc12)B(O)O)[C@@H]1C[C@H]2CC[C@@H]1O2    6.2

Switching to the query record.
hepatocyte CLint measured on O=C(N[C@@H](Cc1coc2ccccc12)B(O)O)[C@H]1C[C@@H]2CC[C@H]1O2 = 6.6

* * *

Biological target: Proteasome subunit beta type-9 (Homo sapiens)
Sequence (P28065 whole entry): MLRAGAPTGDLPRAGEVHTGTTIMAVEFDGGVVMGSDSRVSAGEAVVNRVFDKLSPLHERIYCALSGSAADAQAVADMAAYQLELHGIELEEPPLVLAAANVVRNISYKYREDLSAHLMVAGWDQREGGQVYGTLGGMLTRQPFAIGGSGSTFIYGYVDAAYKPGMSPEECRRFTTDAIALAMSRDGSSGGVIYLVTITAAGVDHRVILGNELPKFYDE
Test: Inhibition of human 20S immunoproteasome beta-1i subunit using (Ac-PAL)2R110 as substrate preincubated for 2 hrs followed by substrate addition and measured after 1 hr by fluorescence intensity assay
quantity-name: IC50 (nM)

(a) CC(C)C[C@H](NC(=O)CNC(=O)c1cc(Cl)ccc1Cl)B(O)O
(b) CCc1cccc(C[C@H](NC(=O)[C@H](Cc2ccccc2)NC(=O)c2cnccn2)B(O)O)c1
Q: // pick min by IC50: a , b Answer by stating the label of the chosen item.
Ans: a

* * *

Biological target: Proteasome Macropain subunit MB1 (Homo sapiens, UniProt P28074)
Sequence (P28074 whole entry): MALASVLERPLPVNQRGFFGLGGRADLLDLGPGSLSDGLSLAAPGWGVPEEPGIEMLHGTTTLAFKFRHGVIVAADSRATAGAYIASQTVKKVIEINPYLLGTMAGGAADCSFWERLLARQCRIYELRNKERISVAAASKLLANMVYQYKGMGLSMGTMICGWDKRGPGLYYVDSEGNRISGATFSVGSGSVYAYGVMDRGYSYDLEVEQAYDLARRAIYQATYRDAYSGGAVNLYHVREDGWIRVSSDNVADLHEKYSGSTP
Assay: Inhibition of human 20S proteasome beta5 subunit using Suc-LLVY-AMC as substrate preincubated for 2 hrs followed by substrate addition and measured after 1 hr by fluorescence intensity assay
pIC50: −log10 of the molar value.
quantity-name: pIC50

# count of solved cases: 5
> print(dat)
                            compound.string  value
1      COCC(=O)N[C@@H](Cc1coc2ccccc12)B(O)O   6.09
2  CCc1cccc(C[C@H](NC(=O)[C@H](Cc2ccccc2)NC(=O)c2cnccn2)B(O)O)c1   7.39
3  Cc1cccc2c1OC[C@H]2C[C@H](NC(=O)Cc1ccccc1C#N)B(O)O   4.85
4  COc1cccc2c(C[C@H](NC(=O)Cc3ccccc3)B(O)O)coc12   6.85
5  O=C(N[C@@H](Cc1coc2ccccc12)B(O)O)[C@@H]1CCCO1   4.62

(P) O=C(Cc1ncccn1)N[C@@H](Cc1coc2ccccc12)B(O)O
(Q) O=C(Cc1ccccc1)N[C@@H](Cc1cc2ccccc2o1)B(O)O
Q: Select the item whose pIC50 value is smaller, choosing between P and Q . Bench note: the answer is the label of the chosen record.
Ans: Q
(Q: 5.30, P: 6.64)

(P) O=C(N[C@@H](Cc1coc2ccccc12)B(O)O)[C@H]1CCCO1
(Q) N#Cc1ccccc1CC(=O)N[C@@H](C[C@@H]1COc2c(Cl)cccc21)B(O)O
Q: Of P and Q , which one carries the higher reported pIC50? Indicate your choice by writing its label.
Ans: P
(P: 6.03, Q: 5.13)

(a) CC(=O)N[C@@H](Cc1coc2ccccc12)B(O)O
(b) O=C(Cc1ccccc1)N[C@@H](Cc1coc2c(F)cccc12)B(O)O
Q: When their pIC50 values are compared, which is larger, a or b ? Could you answer with the label of the item you picked?
Ans: b

(a) O=C(Cc1ccncc1)N[C@@H](Cc1coc2ccccc12)B(O)O
(b) O=C(Cc1ccccc1)N[C@@H](Cc1ccc(Cl)cc1)B(O)O
Q: Select one: a or b . Criterion: greater recorded pIC50. Select an item and report its label.
Ans: a
(a: 5.64, b: 5.25)
